test_name: chemical genetic growth profiling, strain panel (AID 1159580);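 note: tested at 20 µM; growth read once vehicle control cultures reached saturation at 30 °C; 1 = growth at the plate median or of vehicle wells; lower values mean less growth of the strain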
condition_notes: S. cerevisiae deletion strains, growth OD, locus YNR030W, strain Alg12, active compounds read low
Hit rate of the full screen: of about 5,500 compounds, about 2,000 (36%) were called active. About 18% were inconclusive and are not listed. The list shows a part of the results.
observable: normalized growth
Field format: numeric only.

Worked cases, answers included:
>  <chemical_smiles>
Cc1ccc(Sc2nc(C)c([N+](=O)[O-])c(C)c2C#N)cc1

>  <normalized growth>
0.965

$$$$
>  <chemical_smiles>
O=C(Nc1ccccc1)N1CCN(C(c2ccccc2)c2ccccc2)CC1

>  <normalized growth>
0.986

$$$$

Consider the additional compound presented here.
[in] Can you look up the measured normalized growth of CC(=O)C1=C(C)Nc2ccccc2S1 for me?
[out] 0.804
